Target: T1, Soluble ASGR-1 (recombinant, biotinylated) (human, UniProt P07306 62-291, limits assumed, biotinylated)
T1 construct: also called recombinant, soluble ASGR-1 biotinylated protein
T1 sequence: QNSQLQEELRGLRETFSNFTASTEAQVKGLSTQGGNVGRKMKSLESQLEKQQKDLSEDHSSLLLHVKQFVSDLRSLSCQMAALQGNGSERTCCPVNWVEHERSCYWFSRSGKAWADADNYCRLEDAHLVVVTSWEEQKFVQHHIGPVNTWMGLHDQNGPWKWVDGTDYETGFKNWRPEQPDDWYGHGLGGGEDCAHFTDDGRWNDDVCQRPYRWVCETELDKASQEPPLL
Assay: limiting antigen bead FACS; biotinylated soluble ASGR-1 coated at 2.5 ng/mL on LumAvidin beads;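 note: hybridoma supernatants of ligand-competing antibodies bound to antigen-loaded beads, read by flow cytometry on an iQue Screener in calcium-containing buffer, higher fluorescence meaning stronger relative affinity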
Classification field: enter true for FACS Geomean values not below 30000, false for values below it.

Some solved cases for reference:
binder: 48B12 (antibody, V domains shown, Tested as hybridoma supernatant) VH: EVQLLESGGGLVQPGGSLRLSCAASGFTFSSYAMNWVRQAPGKGLEWVSAISGRGGNTFYADSVKGRFTISRDNSKNTLYLQMNSLRAEDTAVYYCAKRETYNWNYEGFDYWGQGTLVTVSS VL: SYELTQPPSVSVSPGQTARITCSGDALPKKYAYWYQQKSGQAPVLVIYEDSKRPSGIPERFSGSSSGTMATLTISGAQVEDEADYYCNSTDSSGNHVVFGGGTKLTVL
label.class: false

binder: 197G3 (antibody, V domains shown, Tested as hybridoma supernatant) VH: QVQLVESGGGVVQPGRSLRLSCVASGFTFSSHGMHWVRQAPGKGLEWVAVIWYDGSNKNYADSVKGRFTISRDNSKNTLYLQMNSLRAEDTAVYYCARDPSVGYDGMDVWGQGTTVTVSS VL: DIQMTQSPSSLSASVGDRVTITCRASQGIGNHLAWFQQKPGKAPKSLIYAASSLQSGVPSKFSGSRSGTDFSLTISSLQPEDFATYYCQQYSNYPVTFGPGTKVDIK
label.class: false

binder: 191G1 (antibody, V domains shown, Tested as hybridoma supernatant) VH: QVQLVESGGGVVQPGRSLRLSCAASGFTFSSYGMHWVRQAPGKGLEWVAVIWYDGSNEHYADSVKGRFTISRDNSKNTLYLQMNSLRAEDTAVYYCARDRGVGYYGLDVWGQGTTVTVSS VL: DIQMTQSPSSLSASVGDRVTITCRASQGISNYLAWFQQKPGKAPKSLIYAASSLQSGVPSKFSGSGSGTDFTLTISSLQPEDFATYYCQHYLTYPLTFGGGTKVEIK
label.class: false

binder: 72G9 (antibody, V domains shown, Tested as hybridoma supernatant) VH: EVQLVESGGGLVKPGGSLRLSCAASGFTFSSYSMNWVRQAPGKGLEWVSSISGSSSYIYYADSVKGRFTISRDNAKNSLYLQMNSLRAEDTAVYFCARGGSRGFDPWGQGTLVTVSS VL: DIQMTQSPSSLSASVGDRVTITCRASQSITSYLNWYQQKPGKAPKLLIYTASSLQSGVPSRFSGSGSGTDFTLTISSLQPEDFATYYCQQSHSFPFTFGPGTKVDIK
label.class: true

Now for a further binder.
Tell me whether FACS Geomean is at least 30000 here: 194C10 (antibody, V domains shown, Tested as hybridoma supernatant) VH: QVQLQQWGAGLLKPSETLSLTCAVSGGSFRYYYWSWIRQPPGKGLEWFGEINHSGSTNYNPSLKSRVTISIDTSKNQFSLKLRSVTAADTAVYYCARDYGAFDIWGQGTMVTVSS VL: EIVLTQSPGTLSLSPGERATLSCRASPSVNSGYLAWYQQKPGQTPRLLIFGASSRATGIPDRFSASGSGADFTLTISRLEPEDFAVYFCQQYESSPWTFGQGTKVEIK
false

All values here come from patent US20210163601A1.
